This collection of values is drawn from patent US12071435B2.

Tested on: human peripheral blood mononuclear cells (hPBMCs)
measurement protocol: Cytokine induction (IL-12p40, IFN-γ, TNF-α) in peripheral blood mononuclear cells, flow cytometric bead array
Format: cell-based
measurement parameters: PBMC, hPBMC, 24 h incubation, supernatant, CBA, read-out: IL-12p40 EC50
readout name: EC50 (nM)
API: value field is a number in nM; no unit string.

*Q* I have this compound here, CCCCC(C)(CNC(=O)[C@@H]1CCCN1)Nc1nc(N)nc2cccnc12 (single isomer, unassigned) , and I need its recorded EC50.
*A* 6
